# Target or system: T1, human PD-L1 protein (soluble) (human, UniProt Q9NZQ7 19-239)
# T1 construct: also called PD-L1 (R&D Systems); His-tagged PD-L1 protein
# T1 sequence (Q9NZQ7 19-239 limits assumed): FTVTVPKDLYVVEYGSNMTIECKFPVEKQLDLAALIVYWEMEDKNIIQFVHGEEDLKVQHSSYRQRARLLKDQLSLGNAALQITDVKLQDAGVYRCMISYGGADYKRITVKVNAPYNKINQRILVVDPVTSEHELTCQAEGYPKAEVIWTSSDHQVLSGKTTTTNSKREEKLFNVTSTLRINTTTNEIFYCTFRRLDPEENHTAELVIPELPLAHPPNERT
# Assay name: SPR, mAb captured on anti-human IgG Fc, PD-L1 as analyte;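 also: array SPR with mAb supernatants captured at several densities, PD-L1 injected for 5 min then 15 min dissociation, non-regenerative kinetic series, double-referenced against interspot surface and blank injection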
Readout kind: koff (s⁻¹)

antibody A8 (antibody, V domains shown, Tested as full-length mAb made in CHO cells; also called L8H8) VH: QVQLVQSGAEVKKPGASVKVSCKASGYTFTSYGISWVRQAPGQGLEWMGWISAYNGSTNYAQKLQGRVTMTTDTSTSTAYMELRSLRSDDTAVFYCARDDRIAVADYYYYFGMDVWGQGTTVTVSS VL: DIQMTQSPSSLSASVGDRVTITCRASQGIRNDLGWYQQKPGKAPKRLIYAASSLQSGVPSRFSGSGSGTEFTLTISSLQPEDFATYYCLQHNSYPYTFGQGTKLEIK	0.013
antibody A17 (antibody, V domains shown, Tested as full-length mAb made in CHO cells; also called L17H17) VH: QVQLQESGPGLVKPSETLSLTCTVSGGSISGYSWSWIRQPPGKGLEWIGYIYYSGSTNNNPSLKSRVTISVDTSKNQFSLKLSSVTAADTAVYFCARDDGIAVAGYYFYYGLDVWGQGTTVTVSS VL: DIQMTQSPSSLSASVGDRVTITCRASQGIRNDLGWYQQKPGKAPKRLIYAASSLQSGVPSRFSGSGSGTEFTLTISSLQPEDFATYYCLQHNTYPWTFGQGTKVEIK	0.077
antibody A7 (antibody, V domains shown, Tested as full-length mAb made in CHO cells; also called L7H7) VH: QVQLQESGPGLVKPSETLSLTCTVSGGSISSYYWSWIRQPPGKGLEWIGYIFYSGSTNYNPSLKSRVTISVDTSKNQFSLKLSSVTAADTAVYFCARDNWHDGGVDYWGQGTLVTVSS VL: EIVMTQSPTTLSLSPGERATLSCRASQSVSSSYLSWYQQKPGQAPRLLIYGASTRATGIPARFSGSGSGTDFTLTISSLQPEDFAVYYCQQDYNLRTFGQGTKVEIK	0.0095
antibody A16 (antibody, V domains shown, Tested as full-length mAb made in CHO cells; also called L16H16) VH: QVQLVESGGGVVQPGRSLRLSCAASGFTFSSYGMHWVRQAPGKGLEWVAVIWYDGSNKYYADSVKGRFTISRDNSNDTLFLQMNSLRAEDTAVYYCARDFDWFGMDVWGQGTTVTVSS VL: DIQMTQSPSSLSASVGDRVTITCRASQGIRNDLGWYQQKPGKAPKRLIYAASSLQSGVPSRFSGSGSGTEFTLTISSLQPEDFATYYCLQHNSYPRTFGQGTKVEIK	0.035
antibody A21 (antibody, V domains shown, Tested as full-length mAb made in CHO cells; also called L21H21) VH: QVQLVESGGGVVQPGRSLRLSCAASGFTFSSYGMHWVRQAPGKGLEWVAVIWYDGSNKFYEDSVKGRFTISRDNSKNTLYLQMNSLRAEDTAVYYCARGGVNWNDVGYYYYGMDVWGQGTTVTVSS VL: DIQLTQSPPFLSASVGDRVTITCRASQGISSYLAWYQQKPGKAPKLLIYAASTLQSGVPSRFSGSGSGTEFTLTISSLQPEDFATYYCQQLNSYPFTFGQGTKLEIK	0.013
antibody A15 (antibody, V domains shown, Tested as full-length mAb made in CHO cells; also called L15H15) VH: QLQLQESGPGLVKPSETLSLTCTVSGGSFNRSNYYWGWIRQPPGKGLEWIGSIYYSGSTYYNPSLKSRLTISADTSKTQFSLKRNSVTAADTAVYYCAREDIVVVPAAQPPHFYFGMDVWGQGTTVTVSS VL: DIQMTQSPSSLSASVGDRVTITCRASQGIRNDLGWYQQKPGKAPKRLIYAASSLQSGVPSRFSGSGSGTEFTLTISSLQPEDFATYYCLQHDSYPLTFGGGTKVEIK	0.022
antibody A3 (antibody, V domains shown, Tested as full-length mAb made in CHO cells; also called L3H3) VL: AIQMTQSPSSLSASVGDRVTITCRASQDIRNDLGWYQQQPGKAPKLLIYAASSLQSGVPSRFSGSGSGTDFTLTISSLQPEDFATYYCLQDYNYPPTFGQGTKVEIK V domain: QVQLVESGGGVVQPGRSLRLSCAASGFTFSNYGMHWVRQAPGKGLEWVAVIWFDGNTKYYTDSVKGRFTISRDNSKNTLYLQMNSLRAEDTAVYYCARDTTMVPMDVWGQGTTATVSS	0.0019
antibody A13 (antibody, V domains shown, Tested as full-length mAb made in CHO cells; also called L13H13) VH: QVQLQESGPGLVKPSETLSLTCTVSGGSISSYYWSWIRQPPGKGLEWIGYIHYSGSTKYNPSLKSRVTISLDTSKNQFSLKLSSVTAADTAVYYCARDRGIGAFDIWGQGTMVTVSS VL: EIVMTQSPATLSLSPGERATLSCRASQSVSSSYLSWYQQKPGQAPRLLIYGASTRATGIPARFSGSGSGTDFTLTISSLQPEDFAVYYCQQDYNLITFGQGTRLEIK	0.039
antibody A6 (antibody, V domains shown, Tested as full-length mAb made in CHO cells; also called L6H6) VH: QVQLVESGGGVVQPGRSLRLSCAASGFTFSSYGMHWVRQAPGKGLEWVAVIWFDGSNKYYADSVKGRFTISRDNSKNTLYLQMNSLRAEDTAVYYCARDKTVSPFDIWGQGTMVTVSS VL: EIVMTQSPATLSLSPGERATLSCRASQSVSSSYLSWYQQKPGQAPRLLIYGASTRATGIPARFSGSGSGTDFTLTISSLQPEDFAVYYCQQDYNLFTFGPGTKVDIK	0.0049
antibody A2 (antibody, V domains shown, Tested as full-length mAb made in CHO cells; also called L2H2) VH: EVQLVESGGGLVQPGGSLRLSCAASGFTFSRYDMSWVRQAPGKGLEWVSTISGSGGSTYYADSVKGRFTISRDNSKTTLYLQMISLRAEDTAVYYCAKAGFTMIVVAFDYWGQGTLVTVSS VL: DIQMTQSPSSLSASVGDRVTITCRASQGISNYLAWFQQKPGKAPKSLIYAASSLQSGVPSKFSGSGSGTDFTLTISSLQPEDFATYYCQQYNSYPYTFGQGTKLEIK	0.0038
